target: human recombinant PPARγ ligand binding domain (LBD) (Homo sapiens); test: biochemical
Sequence (P37231 238-503 limits assumed): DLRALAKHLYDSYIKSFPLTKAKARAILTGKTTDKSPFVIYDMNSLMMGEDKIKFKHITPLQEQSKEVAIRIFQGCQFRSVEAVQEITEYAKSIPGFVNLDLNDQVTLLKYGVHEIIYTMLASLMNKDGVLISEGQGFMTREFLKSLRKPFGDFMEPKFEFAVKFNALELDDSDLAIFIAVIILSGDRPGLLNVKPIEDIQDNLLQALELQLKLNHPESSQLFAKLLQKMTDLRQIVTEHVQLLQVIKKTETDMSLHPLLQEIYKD
pKd: −log10 of the molar value.

- compound: "O=P(Oc1ccccc1)(Oc1ccccc1)Oc1ccccc1 [TPP, triphenyl phosphate]"
  system.tested: "human recombinant PPARγ ligand binding domain (LBD) (Homo sapiens)"
  pKd: 4.70
